target: HLA-B*44:03; assay: IEDB peptide-MHC binding, purified MHC/competitive/radioactivity; filed as Kd, often an IC50 or EC50 that approximates it; bounds were set here for any values at or beyond the usual limits of such assays; conditions: source organism: Lymphocytic choriomeningitis virus (strain Armstrong)
measurement_kind: Kd (µM)
Give the value, in units of µM, as a plain number.

Record AEALGPFQS . Reported Kd: 6.97

---

target: HLA-B*08:02; test: IEDB peptide-MHC binding, purified MHC/direct/fluorescence; filed as Kd, often an IC50 or EC50 that approximates it; bounds were set here for any values at or beyond the usual limits of such assays; settings: source organism: Cryptosporidium parvum Iowa II
measurement_kind: Kd

Record NTSTCFQEY . Reported Kd: ≥ 20 µM

---

biological target: HLA-A*23:01; experiment: IEDB peptide-MHC binding, purified MHC/competitive/radioactivity; filed as Kd, often an IC50 or EC50 that approximates it; bounds were set here for any values at or beyond the usual limits of such assays; settings: source organism: Mammarenavirus whitewaterense
measurement_kind: Kd (nM)
Give the value, in units of nM, as a plain number.

Record KFWYVNHTGF has HLA-A*23:01 Kd equal to 80.9

---

target: HLA-B*15:01; experiment: IEDB peptide-MHC binding, purified MHC/direct/fluorescence; filed as Kd, often an IC50 or EC50 that approximates it; bounds were set here for any values at or beyond the usual limits of such assays; details: source organism: Orthohantavirus hantanense
measurement_kind: pKd
Recall that pKd is obtained by taking minus log10 of the concentration measured in molar.

Record RLKPVGSAY . Reported pKd: 6.45

---

target: HLA-A*02:01; experiment: IEDB peptide-MHC binding, purified MHC/direct/fluorescence; filed as Kd, often an IC50 or EC50 that approximates it; bounds were set here for any values at or beyond the usual limits of such assays; conditions: source organism: Listeria monocytogenes serotype 4b str. H7858
Readings of Kd for the listed sequences

sequence_record	Kd
ERYPGGVSL	≥ 20 µM

--- query ---
Record FPDGKPFTL . Reported Kd: ≥ 20 µM

---

biological target: HLA-A*02:01; experiment: IEDB peptide-MHC binding, purified MHC/competitive/fluorescence; filed as Kd, often an IC50 or EC50 that approximates it; bounds were set here for any values at or beyond the usual limits of such assays; details: source organism: Vibrio antiquarius
pKd: −log10 of the molar value.
measurement_kind: pKd

Record FDLFGITLY . Reported pKd: ≤ 4.70

---

target: HLA-B*58:01; test: IEDB peptide-MHC binding, purified MHC/competitive/fluorescence; filed as Kd, often an IC50 or EC50 that approximates it; bounds were set here for any values at or beyond the usual limits of such assays; conditions: source organism: Mycobacterium leprae
measurement_kind: Kd

Record TVGYMYIMK has HLA-B*58:01 Kd equal to ≥ 20 µM

---

biological target: HLA-B*57:01; test: IEDB peptide-MHC binding, purified MHC/competitive/fluorescence; filed as Kd, often an IC50 or EC50 that approximates it; bounds were set here for any values at or beyond the usual limits of such assays; conditions: source organism: Cryptosporidium parvum Iowa II
measurement_kind: Kd (nM)
Give the value, in units of nM, as a plain number.

sequence_record	Kd, nM
KSFSAGMFH	574

--- query ---
Record KSWLVHWSL . Reported Kd: 32.8

Entry source: the Immune Epitope Database (IEDB)
